Source: patent US20180353398A1

# protocol-details: Kinematic viscosity of shampoo base formulation with viscosity reducing agent (calibrated viscometers)
# Format: physicochemical
# condition-context: lowest of 2-8% agent in base formulation, 40° C.
# Description: Now referring to Tables 11 and 12, the base formulations were made by mixing 1.6% perfume, 24% linear sodium undecyl sulfate (CAS# 1072-24-8) active, 6% lauramidopropyl betaine (CAS# 4292-10-8) active and 60.4% deionized water which leaves 8% unfilled for the addition of a viscosity reducing agent (the balance being filled in by distilled water). […] Viscosity values in Table 11 and Table 12 were calculated based on the equation: […]
property: Lowest viscosity achieved (cSt)
Just the number please, in cSt, no unit attached.

[[record]]
molecule = "CC1=CCC(C(C)C)=CC1"
property = "Lowest viscosity achieved (cSt)"
assay_result = 32


INPUT: Looking for the measured Lowest viscosity achieved (cSt) of C=C(C)[C@H]1CC=C(C)CC1 [Limonene] , can you help?
OUTPUT: 86

INPUT: Similarly, CC(C)=CCC/C(C)=C/COC(=O)Cc1ccccc1 [Geranyl Phenyl Acetate] ?
OUTPUT: 34

INPUT: Now the same for "CCCCCCCC(OC)OC"
OUTPUT: 308

INPUT: Also need C=CC(C)(CCC=C(C)C)OC(=O)C(C)C (centres unmarked) [Linalyl Iso Butyrate] , thanks.
OUTPUT: 38

INPUT: Also, "CC1=CC=C(C(C)C)CC1" please.
OUTPUT: 42

INPUT: Likewise for CC(C)CCOC(=O)c1ccccc1O [Isoamyl Salicylate] ?
OUTPUT: 193

INPUT: Likewise for "CC12CCC(CC1)C(C)(C)O2" ?
OUTPUT: 203

INPUT: Another molecule to look at: CC(=O)OCCC(C)CCC=C(C)C (centres unmarked) [Citronellyl Acetate]
OUTPUT: 363

INPUT: Also, CCC(CC(C)CC)=NO (centres unmarked) please.
OUTPUT: 246
